This collection of values is drawn from patent EP4707280A1.

Consider the following compounds; for each one, report its weed inhibition rate.
- Tested on: Scirpus juncoides
- test_description: Test Example 2: herbicidal effect test by application during growth period of paddy rice
- Format: in vivo
- experimental_parameters: 120 g per 10 ares; applied seven days after sowing, flooded pots; 14 days after application

With Scirpus juncoides as the test system, CC(C)[C@]12C[C@@H](OCc3ccccc3F)[C@](C)(C[C@@H]1Cl)O2 showed weed inhibition rate of ≥ 80%

Tested system Scirpus juncoides; weed inhibition rate recorded for CC(C)[C@]12C[C@@H](OCc3ccccc3F)[C@](C)(C=C1OS(=O)(=O)C(F)(F)F)O2 (racemic) was ≥ 80%

Recorded weed inhibition rate for CC(C)[C@]12C[C@@H](OCc3ccccc3C#N)[C@](C)(C[C@@H]1I)O2 on Scirpus juncoides was ≥ 80%

Assay Scirpus juncoides, sample CC(=O)O[C@H]1C[C@]2(C)O[C@@]1(C(C)C)C[C@H]2OCc1ccccc1F (racemic) , weed inhibition rate read: ≥ 80%

Measured weed inhibition rate for this entry CC(C)[C@]12C[C@@H](OCc3ccccn3)[C@](C)(C[C@@H]1I)O2 on Scirpus juncoides: ≥ 80%

Reported Scirpus juncoides weed inhibition rate for item CCOC(C)O[C@H]1C[C@]2(C)O[C@@]1(C(C)C)C[C@H]2OCc1ccccc1F (stereo partly drawn) was ≥ 80%
